# koff listing for each entry below
target: T1, Full-length human HER3 extracellular domain (ECD) (human, UniProt P21860 20-643); assay: BIACORE 3000 SPR, mAb captured by anti-human Fc, ECD as analyte, 25 C
T1 construct: also called human HER3 ECD; HER-3 ECD full length
T1 sequence (P21860 20-643): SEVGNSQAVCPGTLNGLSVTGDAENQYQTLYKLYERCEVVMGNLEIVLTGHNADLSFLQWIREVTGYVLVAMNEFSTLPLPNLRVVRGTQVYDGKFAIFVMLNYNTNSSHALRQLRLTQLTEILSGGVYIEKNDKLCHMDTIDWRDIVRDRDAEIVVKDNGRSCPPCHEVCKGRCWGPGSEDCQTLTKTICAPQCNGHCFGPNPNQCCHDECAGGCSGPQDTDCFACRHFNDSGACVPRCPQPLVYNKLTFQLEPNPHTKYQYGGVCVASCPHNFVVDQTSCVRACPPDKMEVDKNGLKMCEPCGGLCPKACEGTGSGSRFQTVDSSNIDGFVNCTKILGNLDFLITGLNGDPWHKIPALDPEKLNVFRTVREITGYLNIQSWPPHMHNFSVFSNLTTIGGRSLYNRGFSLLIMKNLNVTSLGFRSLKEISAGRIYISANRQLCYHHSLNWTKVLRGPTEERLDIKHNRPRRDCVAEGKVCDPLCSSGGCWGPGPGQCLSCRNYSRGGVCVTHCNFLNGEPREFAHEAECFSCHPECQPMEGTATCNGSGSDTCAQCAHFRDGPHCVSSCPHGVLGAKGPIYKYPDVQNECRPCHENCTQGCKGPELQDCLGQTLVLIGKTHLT
# value in s⁻¹; strip the unit string

- binder: "1D9 H6L4 RR antibody (antibody, V domains shown) VH: QVQLVQSGAEVKKPGASVKVSCKASGYTFTSYWMHWVRQAPGQGLEWMGVIDPSDGYSHYNQKFKGKVTLTVDTSISTAYMELSRLRSDDTAVYYCAGGLAGTLDYWGQGTTVTVSS VL: DILMTQSPSSLSASVGDRVTITCRSSQSIVHSSGNTYLQWYQQKPGKAPKLLIYKVSNRFSGVPSRFSGSGSGTDFTLTISSLQPEDFAVYYCFQGSHVPWTFGQGTKLEIKR"
  outputUnit: "s⁻¹"
  koff: 0.0041
- binder: "1D9 H3L6 RR antibody (antibody, V domains shown) VH: QVQLVQSGAEVKKPGASVKVSCKASGYTFTSYWMHWVRQAPGQGLEWMGVIDPSDGYSHYNQKFKGKVTMTRDTSISTAYMELSRLRSDDTAVYYCARGLAGTLDYWGQGTTVTVSS VL: DVVMTQSPLSLPVTLGQPASISCRSSQSIVHSSGNTYLQWFQQRPGQSPRRLIYKVSNRFSGVPDRFSGSGSGTDFTLKISRVEAEDVGVYYCFQGSHVPWTFGQGTKLEIKR"
  outputUnit: "s⁻¹"
  koff: 0.00292
- binder: "1D9 H6L9 RR antibody (antibody, V domains shown, Humanized RR variant) VH: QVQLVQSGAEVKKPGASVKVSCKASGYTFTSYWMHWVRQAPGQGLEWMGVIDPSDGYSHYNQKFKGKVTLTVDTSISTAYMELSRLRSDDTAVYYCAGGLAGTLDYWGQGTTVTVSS VL: DVVMTQSPLSLPVTLGQPASISCRSSQSIVHSSGNTYLQWFQQRPGQSPKLLISKVSNRFSGVPDRFSGSGSGTDFTLKISRVEAEDVGVYYCFQGSHVPWTFGQGTKLEIKR"
  outputUnit: "s⁻¹"
  koff: 0.00223
- binder: "15D5 H4L3 (antibody, V domains shown, To be rechecked) VH: QVQLVQSGAEVKKPGASVKVSCKASGYTFTDYNMNWVRQAPGQGLEWMGGINPNYGTTVYNQKFKGKVTLTVDTSISTAYMELSRLRSDDTAVYYCARMTTIVPFDYWGQGTTVTVSS VL: DIQMTQSPSSLSASVGDRVTITCRASQDISNYLNWYQQKPGKAPKLLIYYTSTLHSGVPSRFSGSGSGTDFTLTISSLQPEDFATYYCQQGYTLPWTFGQGTKLEIKR"
  outputUnit: "s⁻¹"
  koff: 0.000935
- binder: "1D9 H3L2 RR antibody (antibody, V domains shown, Humanized RR variant) VH: QVQLVQSGAEVKKPGASVKVSCKASGYTFTSYWMHWVRQAPGQGLEWMGVIDPSDGYSHYNQKFKGKVTMTRDTSISTAYMELSRLRSDDTAVYYCARGLAGTLDYWGQGTTVTVSS VL: DIQMTQSPSSLSASVGDRVTITCRSSQSIVHSSGNTYLQWFQQKPGKAPKLLIYKVSNRFSGVPSRFSGSGSGTDFTLTISSLQPEDFAVYYCFQGSHVPWTFGQGTKLEIKR"
  outputUnit: "s⁻¹"
  koff: 0.00316

Continue with the binder presented below.
Ask: Quick check: koff of 15D5 H2L2 antibody (antibody, V domains shown, Humanized 15D5 variant) VH: QVQLVQSGAEVKKPGASVKVSCKASGYTFTDYNMNWVKQAPGQGLEWIGGINPNYGTTVYNQKFKGKATLTVDQSISTAYMELSRLRSDDTAVYYCARMTTIVPFDYWGQGTTVTVSS VL: DIQMTQSPSSLSASVGDRVTITCRASQDISNYLNWYQQKPGKAPKLLIYYTSTLHSGVPSRFSGSGSGTDYTLTISSLQPEDFATYYCQQGYTLPWTFGQGTKLEIKR ?
Result: 0.00407
